- tgt: PDE4
- test: Radioenzymatic phosphodiesterase assay: PDE4 inhibition (selectivity)
- experimentalParameters: read-out: PDE4 IC50; Table 2; PDE4 of vascular smooth muscle
endpointName: IC50 (nM)
Give the quantity in nM, number only.

# get_value(readout='IC50', item= COc1ccc(C2=NCC(=O)N(C)c3cc(OC)c(-c4c(OC)cccc4OC)cc32)cc1 [Example 109] )
1000

###

# PDE3 percentage of inhibition at 10 μM per record follows
- System: PDE3
- test: Radioenzymatic phosphodiesterase assay: PDE3 inhibition (selectivity)
- experimentalParameters: Table 2; 10 μM test compound; PDE3 of vascular smooth muscle
Give the quantity in %, number only.

>>> observedmeasurement("COc1cc2c(cc1-c1c(OC)cccc1OC)C(c1cccc(C(N)=O)c1)=NCC(=O)N2C")
52
>>> observedmeasurement("COc1ccccc1-c1cc2c(cc1OC)N(C)C(=O)CN=C2c1cccc(C(N)=O)c1")
9
>>> observedmeasurement("COc1cccc(OC)c1-c1ccc2c(c1)C(c1ccc(F)cc1)=NCC(=O)N2C")
0
>>> observedmeasurement("COc1ccc(C2=NCC(=O)N(C)c3cc(OC)c(-c4c(OC)cccc4OC)cc32)cc1")
37
>>> observedmeasurement("COc1cc2c(cc1-c1ccccc1Cl)C(c1cccc(C(N)=O)c1)=NCC(=O)N2C")
25
>>> observedmeasurement("COc1cccc(OC)c1-c1ccc2c(c1)C(c1cccc(C(N)=O)c1)=NCC(=O)N2C")
0

# get_value(readout='PDE3 percentage of inhibition at 10 μM', item= COc1cccc(OC)c1-c1ccc2c(c1)C(c1cccc(C)c1)=NCC(=O)N2C )
3

###

# inhibition at 10 µM per record follows
- tgt: PDE2 (Bos taurus, UniProt P14099)
- test: Radioenzymatic phosphodiesterase assay: PDE2 inhibition
- Type: biochemical, bovine
- experimentalParameters: Table 1; 10 μM test compound; read-out: PDE2 percentage of inhibition at 10 μM
Give the quantity in %, number only.

Study these solved cases before continuing.
>>> observedmeasurement("CN1C(=O)CN=C(c2cccc(N)c2)c2cc(-c3ccccc3)ccc21")
52
>>> observedmeasurement("COc1cc2c(cc1-c1ccccc1Cl)C(c1cccc(C(N)=O)c1)=NCC(=O)N2C")
95
>>> observedmeasurement("CC(=O)c1cccc(C2=NCC(=O)N(C)c3ccc(-c4ccccc4)cc32)c1")
91
>>> observedmeasurement("COc1ccccc1C1=NCC(=O)N(C)c2ccc(-c3ccccc3)cc21")
28
>>> observedmeasurement("COc1cc2c(cc1-c1ccco1)C(c1cccc(C(N)=O)c1)=NCC(=O)N2C")
71
>>> observedmeasurement("CN1C(=O)CN=C(c2ccc(Cl)c(Cl)c2)c2cc(-c3ccccc3)ccc21")
70
>>> observedmeasurement("COCCCc1cccc(C2=NCC(=O)N(C)c3cc(OC)c(-c4ccccc4)cc32)c1")
96

# get_value(readout='inhibition at 10 µM', item= COc1ccc(C2=NCC(=O)N(C)c3ccc(-c4c(OC)cccc4OC)cc32)cc1 )
99

###

- tgt: PDE2 (Bos taurus)
- Sequence (P14099 1-921): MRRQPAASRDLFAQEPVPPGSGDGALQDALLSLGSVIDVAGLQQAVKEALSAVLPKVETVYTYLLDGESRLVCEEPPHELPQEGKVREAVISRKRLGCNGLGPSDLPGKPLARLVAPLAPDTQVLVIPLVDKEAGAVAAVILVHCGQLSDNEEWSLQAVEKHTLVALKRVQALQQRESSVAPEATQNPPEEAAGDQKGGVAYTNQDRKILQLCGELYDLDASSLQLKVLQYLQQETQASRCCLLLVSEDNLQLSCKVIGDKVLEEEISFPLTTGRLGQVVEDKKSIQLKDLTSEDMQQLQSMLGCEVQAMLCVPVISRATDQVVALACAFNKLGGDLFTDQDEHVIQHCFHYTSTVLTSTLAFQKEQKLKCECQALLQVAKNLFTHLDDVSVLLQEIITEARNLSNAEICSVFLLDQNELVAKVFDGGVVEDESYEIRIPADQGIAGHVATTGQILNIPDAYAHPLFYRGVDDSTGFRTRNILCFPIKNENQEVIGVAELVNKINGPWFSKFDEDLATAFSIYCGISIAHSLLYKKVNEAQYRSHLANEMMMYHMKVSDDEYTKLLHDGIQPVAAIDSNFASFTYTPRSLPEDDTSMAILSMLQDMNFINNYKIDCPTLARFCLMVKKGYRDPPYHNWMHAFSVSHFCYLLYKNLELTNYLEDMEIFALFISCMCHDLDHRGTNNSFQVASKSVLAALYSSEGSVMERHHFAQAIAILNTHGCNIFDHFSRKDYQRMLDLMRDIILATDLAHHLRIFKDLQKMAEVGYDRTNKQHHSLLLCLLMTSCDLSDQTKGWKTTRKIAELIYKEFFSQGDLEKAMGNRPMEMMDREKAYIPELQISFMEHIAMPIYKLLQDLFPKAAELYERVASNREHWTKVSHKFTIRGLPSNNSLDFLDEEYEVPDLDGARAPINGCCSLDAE
- test: Radioenzymatic phosphodiesterase assay: PDE2 inhibition
- Type: biochemical, bovine
- experimentalParameters: Table 1; 10 μM test compound; read-out: PDE2 percentage of inhibition at 10 μM
endpointName: inhibition at 10 µM (%)
Give the quantity in %, number only.

>>> observedmeasurement("COc1ccccc1-c1cc2c(cc1OC)NC(=O)CN=C2c1cccc(C(N)=O)c1")
94
>>> observedmeasurement("COc1cc2c(cc1-c1c(OC)cccc1OC)C(c1cccc(C(N)=O)c1)=NCC(=O)N2C")
97
>>> observedmeasurement("CN1C(=O)CN=C(c2cccc(C(N)=O)c2)c2cc(-c3ccccc3)c(OC(F)(F)F)cc21")
93

# get_value(readout='inhibition at 10 µM', item= COc1cc2c(cc1-c1ccccc1)C(c1ccccc1Br)=NCC(=O)N2C )
71

# get_value(readout='inhibition at 10 µM', item= CN1C(=O)CN=C(c2ccc(Cl)cc2)c2cc(-c3ccccc3)ccc21 )
1

# get_value(readout='inhibition at 10 µM', item= COc1ccccc1-c1cc2c(cc1Oc1ccccc1)N(C)C(=O)CN=C2c1cccc(C(N)=O)c1 )
98
